Measured values drawn from ChEMBL document CHEMBL3603785 for this set.

Test: High throughput kinetic solubility of the compound at pH 6.8
Assay type: physicochemical
Conditions: buffer, read-out: Kinetic_solubility
reported.endpoint: solubility kinetic (µg/mL)
Form entry: value (µg/mL) — number only.

                                        smi  obs_value
0  N#Cc1cccc(-c2nc(N3CCC(C(=O)O)CC3)cc3cccnc23)c1         20
1  N#Cc1cccc(-c2nc([C@H]3CC[C@H](C(=O)O)CC3)cc3cccnc23)c1         20
2  O=C(O)[C@H]1CC[C@H](c2cc3cccnc3c(-c3cccc(Cl)c3)n2)CC1        100
3  O=C(O)[C@H]1CC[C@H](c2cc3cccnc3c(-c3cccc(F)c3)n2)CC1         10

Now let's try a different one.
In plain terms, `COc1cccc(-c2nc([C@H]3CC[C@H](C(=O)O)CC3)cc3cccnc23)c1` has a documented solubility kinetic of 20
